test summary: mn = molality of the nth substance listed, in mol/kg
test conditions: 303.15 K; 101 kPa; Liquid; Vibrating tube method; m1 = 0.1
outcome measure: mass density (kg/m3)

1. O=P([O-])(O)O.[Li+] [lithium dihydrogen phosphate] + O | 1003.21
2. O=P([O-])(O)O.[K+] [monopotassium phosphate] + O | 1005.58
3. O=P([O-])([O-])[O-].[Na+].[Na+].[Na+] [trisodium phosphate] + O | 1013.87
4. O=P([O-])(O)O.[Na+] [sodium dihydrogen phosphate] + O | 1005.17
5. O=P([O-])([O-])[O-].[K+].[K+].[K+] [tripotassium phosphate] + O | 1015.62
6. O=P([O-])([O-])O.[K+].[K+] [dipotassium hydrogen phosphate] + O | 1015.38
7. O=P(O)(O)O [phosphoric acid] + O | 1000.62
8. O=P([O-])([O-])O.[Na+].[Na+] [disodium hydrogen phosphate] + O | 1009.51
